Target: FAP (Homo sapiens)
Construct: the extracellular domain of FAP was cloned with a His-6 tag; made in house
Sequence (Q12884 26-760 limits assumed): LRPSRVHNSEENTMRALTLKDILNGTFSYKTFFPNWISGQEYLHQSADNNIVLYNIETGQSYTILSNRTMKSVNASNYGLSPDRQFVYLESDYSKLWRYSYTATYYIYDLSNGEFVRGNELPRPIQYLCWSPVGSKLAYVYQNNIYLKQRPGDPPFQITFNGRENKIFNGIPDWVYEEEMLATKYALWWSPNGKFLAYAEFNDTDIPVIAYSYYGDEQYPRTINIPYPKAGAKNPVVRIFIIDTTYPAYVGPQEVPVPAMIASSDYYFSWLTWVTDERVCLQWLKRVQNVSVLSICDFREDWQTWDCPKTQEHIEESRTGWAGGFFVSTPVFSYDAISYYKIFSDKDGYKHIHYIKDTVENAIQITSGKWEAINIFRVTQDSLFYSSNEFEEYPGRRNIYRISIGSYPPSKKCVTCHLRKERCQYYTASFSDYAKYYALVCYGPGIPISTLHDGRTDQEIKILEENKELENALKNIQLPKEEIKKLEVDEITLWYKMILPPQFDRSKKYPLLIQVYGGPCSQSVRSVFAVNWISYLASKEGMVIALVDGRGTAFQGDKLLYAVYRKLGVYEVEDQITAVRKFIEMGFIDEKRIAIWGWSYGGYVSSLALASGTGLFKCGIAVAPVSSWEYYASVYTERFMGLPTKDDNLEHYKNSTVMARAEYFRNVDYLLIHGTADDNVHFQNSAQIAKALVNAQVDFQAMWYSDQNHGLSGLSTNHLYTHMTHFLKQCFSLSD
Assay: LC-MS/MS cleavage map of FAP digest of 100 kDa recombinant human gelatin
Format: biochemical
Settings: 100 kDa gelatin digest
READOUT_LABEL: Occurences

Examples with answers:
E.PGKQGPSGASGERGPPGP.M: FAP cleavage fragment, 100 kDa recombinant human gelatin	5
P.SGNAGPPGPPGP.A: FAP cleavage fragment, 100 kDa recombinant human gelatin	14

[P] P.AGFAGPPGADGQPGAKGEPGDAGAKGDAGPPGP.A: FAP cleavage fragment, 100 kDa recombinant human gelatin
[Q] P.AGPPGAPGAPGAPGPVGP.A: FAP cleavage fragment, 100 kDa recombinant human gelatin
Please indicate which entry, P or Q , has the lower recorded Occurences value. I would appreciate it if you answered with the label of your choice.
Q
(Q: 2, P: 8)
